assay: Drug concentration in PBMCs of healthy human at 400 mg, po ad for 14 days measured after 24 hrs post last dose by liquid chromatography-tandem mass spectrometry; assay type: ADME, organism-based, PBMC; conditions: read-out: Drug uptake

compound | value-unit | concentration at 24 h
O=C1Nc2ccc(Cl)cc2[C@@](C#CC2CC2)(C(F)(F)F)O1 [EFAVIRENZ] | ng/mL | 2030

* * *

assay: Half life in healthy human plasma at 400 mg, po qd for 14 days by liquid chromatography-tandem mass spectrometry; format: ADME, organism-based
parameter-measured: half-life (h)

compound | numeric-readout
O=C1Nc2ccc(Cl)cc2[C@@](C#CC2CC2)(C(F)(F)F)O1 | 33

* * *

assay: Ratio of drug concentration in PBMCs to plasma of healthy human administered at 400 mg, po qd for 14 days measured after 5 hrs post last dose; type: ADME, organism-based, PBMC
parameter-measured: Kp at 5 h

compound | numeric-readout
O=C1Nc2ccc(Cl)cc2[C@@](C#CC2CC2)(C(F)(F)F)O1 | 1.76

* * *

test: Half life in healthy human plasma at 400 mg, po measured on day 1 post dose by liquid chromatography-tandem mass spectrometry; format: ADME, organism-based
parameter-measured: half-life (days)

compound | parameter-measured | numeric-readout
O=C1Nc2ccc(Cl)cc2[C@@](C#CC2CC2)(C(F)(F)F)O1 | half-life | 3.28

* * *

test: Ratio of drug concentration in PBMCs to plasma of healthy human administered at 400 mg, po qd for 14 days measured after 24 hrs post last dose; format: ADME, organism-based, PBMC
parameter-measured: Kp at 24 h

molecule | numeric-readout
O=C1Nc2ccc(Cl)cc2[C@@](C#CC2CC2)(C(F)(F)F)O1 [EFAVIRENZ] | 1.36

* * *

experiment: Cmax in healthy human plasma at 400 mg, po measured on day 1 post dose by liquid chromatography-tandem mass spectrometry; assay type: ADME, organism-based; set-up: dose 400 mg, route oral

compound | Cmax / ng/mL
O=C1Nc2ccc(Cl)cc2[C@@](C#CC2CC2)(C(F)(F)F)O1 [EFAVIRENZ] | 2740

* * *

assay: Ratio of drug concentration in PBMCs to plasma of healthy human administered at 400 mg, po measured after 5 hrs on day 1 post dose; type: ADME, organism-based, PBMC
parameter-measured: Kp at 5 h

compound | parameter-measured | numeric-readout
O=C1Nc2ccc(Cl)cc2[C@@](C#CC2CC2)(C(F)(F)F)O1 | Kp at 5 h | 1.63

* * *

experiment: Drug concentration in PBMCs of healthy human at 400 mg, po measured after 24 hrs on day 1 post dose by liquid chromatography-tandem mass spectrometry; assay type: ADME, organism-based, PBMC; details: read-out: Drug uptake

compound | concentration at 24 h [ng/mL]
O=C1Nc2ccc(Cl)cc2[C@@](C#CC2CC2)(C(F)(F)F)O1 [EFAVIRENZ] | 974
